target.system: UniProt P00469
Sequence (P00469 whole entry): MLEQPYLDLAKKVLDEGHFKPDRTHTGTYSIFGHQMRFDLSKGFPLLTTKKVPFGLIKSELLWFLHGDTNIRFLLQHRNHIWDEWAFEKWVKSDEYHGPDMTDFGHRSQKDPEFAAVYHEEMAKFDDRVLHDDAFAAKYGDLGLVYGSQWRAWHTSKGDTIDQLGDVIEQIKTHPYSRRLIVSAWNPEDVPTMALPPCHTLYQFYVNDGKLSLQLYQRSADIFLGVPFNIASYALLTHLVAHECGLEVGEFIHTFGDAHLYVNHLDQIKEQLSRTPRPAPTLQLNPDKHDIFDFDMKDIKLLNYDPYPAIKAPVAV
pKi: −log10 of the molar value.
attribute.measured: pKi

(A) CN(C)c1cccc2c(S(=O)(=O)Oc3ccc(C[C@H](NS(=O)(=O)c4cccc5cc(N)ccc45)C(=O)O)cc3)cccc12
(B) CN(C)c1cccc2c(S(=O)(=O)Oc3ccc(C[C@H](NS(=O)(=O)c4cc5nnoc5c5ccccc45)C(=O)O)cc3)cccc12
QUERY: Of A and B , which carries the smaller reported pKi figure? Lab note: record the label of whichever item you select.
RESULT: B
